The reported numbers originate from PubChem BioAssay (NCI).

Parameter TGI: see the listing below.
test system: T-47D breast; assay: NCI tumour cell line growth inhibition, 48 h

Examples with their reported TGI follow.
structure.string: C(=N\Nc1nnc(-c2nnc(N/N=C/c3ccccc3)o2)o1)/c1ccccc1
TGI: > 10 µM
//
structure.string: N#Cc1nc(-c2ccccn2)c(-c2ccccn2)nc1C#N
TGI: 9.5 µM

Moving on to the next compound.
Please give the measured TGI for this compound: CCOC(=O)Nc1ccc2nc(Sc3ccc(Cl)cc3)sc2c1
> 78.7 µM

----------
test system: EKVX NSCLC; assay: NCI tumour cell line growth inhibition, 48 h
*1 amine or outer side, *2 acyl side, *3 side chain or, on linkers, in order; H or OH if unused. Where a SMILES comes first, the peptide text is derived from it. [ ]: non-standard residue; d: D form. The star is where a group is joined. X12 = NCCCCC(N[*:1])C(=O)CN1CCCC1C(=O)[*:2]; Pentadecanoyl = CCCCCCCCCCCCCCC(=O)*
endpoint: TGI (µM)
Give the value in µM but do not write µM after it.

Examples with their reported TGI follow.
compound: CCCCCCCCCCCCCCC(=O)NC(CCCCN)C(=O)CN1CCCC1C(=O)NCC(=O)NC(Cc1ccccc1)C(=O)N1CCCC1C(=O)NC(CO)C(=O)NC(Cc1ccc(O)cc1)C(=O)NC(CCCCN)C(=O)NC(CC(C)C)C(=O)NC(CCCN=C(N)N)C(=O)N1CCCC1C(=O)NCC(N)=O (stereo unspecified) (Pentadecanoyl-[X12]GFPSYKLRPG-NH2; configuration not given here)
assayed.system: EKVX NSCLC
value.observed: 60.5

compound: Clc1ccc2c(NCCNc3nc(Cl)nc4ccccc34)ccnc2c1
assayed.system: EKVX NSCLC
value.observed: 3.56

Moving on to the next compound.
Please give the measured TGI for this compound: CC1[C@@H]2C[C@@H]3O[C@@]34[C@H]3CCC5Cc6nc7c(nc6C[C@@]5(C)C3(O)CC(=O)[C@@]24CO[C@]12OC(C)(C)CC2O)CC1CC[C@@H]2C3=C[C@H]4O[C@@]5(O[C@@](C)(CO)C[C@@H]5O)C(C)[C@@]4(O)[C@]3(C)[C@@H](O)CC2[C@]1(C)C7 (stereo partly specified)
1.03

----------
system: HL-60(TB) leukemia; assay: NCI tumour cell line growth inhibition, 48 h
// bucketize TGI: band A (below 7 µM), band B (7 µM to below 40 µM), band C (40 µM or more)

Recorded results for 2 compounds are shown here.
compound: NC(=O)c1ccc(S(=O)(=NS(=O)(=O)c2ccccc2)c2ccc(C(N)=O)cc2)cc1
assigned.label: band C

compound: CCOC(=O)C1=C(C)N(c2ccc(Cl)cc2)C2(O)C=CC(=O)C3C(=O)N(c4ccccc4)C(=O)C132 (configuration not stated)
assigned.label: band A

Please let me know in which category the item CCC[CH2][Sn]1([CH2]CCC)[O]N=Cc2ccccc2[O]1 belongs.
band A

Another compound to check: Cc1nc(C)c(C(=O)NNC(=O)c2ccccc2)cc1C(=O)NNC(=O)c1ccccc1
band C

----------
system: 786-0 renal; test: NCI tumour cell line growth inhibition, 48 h; in the data active = GI50 below about 0.43 µM; inactive = the rest
API: response.call in yes = active, no = inactive

compound: CCN(CC)Cc1cc(Nc2c3ccc(Cl)cc3nc3c(C)cccc23)ccc1O
assigned.label: no
--
compound: c1cc[c]([Sn]([O]c2cccc3cccnc23)([c]2ccccc2)[c]2ccccc2)cc1
assigned.label: yes
--
compound: O=C(CN1CCN(c2cc3c(cc2F)c(=O)c(C(=O)O)cn3C2CC2)CC1)Nc1ccc(C(=O)/C=C/c2ccccc2)cc1
assigned.label: no
--
compound: COC(=O)C([O][Ge]([CH3])([CH3])[CH3])c1ccccc1 (stereo not given)
assigned.label: no

For COc1ccc(C2C3=C(COC3=O)N(CCO)c3cc4c(cc32)CCC4)cc1OC (stereo not given) , what call appears in the results of this test?
no

Another compound to check: CC(=O)O[C@H]1Cc2c([nH]c3ccccc23)[C@@H](c2ccc(Cl)cc2)N1C(=O)CCNC(C)(C)C
no

Another compound to check: COC(=O)CCCCCCCCC(=O)c1c(C)[nH]c(/C=C2\N=C(c3ccc[nH]3)C=C2OC)c1C
no

Another compound to check: CCN(Cc1cccc(C)c1)c1ccc(CO)c(Cl)c1
no

Another compound to check: CCOC(=O)CCC(NC(=O)c1ccc(Nc2nc3cc(N)cc(N)c3nc2-c2ccccc2)cc1)C(=O)OCC (stereo not given)
no

Another compound to check: Cc1cncc2cccc(S(=O)(=O)N3CCCNC[C@@H]3C)c12
no

Another compound to check: COc1ccc2c(c1)/C(=N/OC(C)=O)c1c-2c(Nc2ccc(/C(C)=N/OC(C)=O)cc2)nc2ccccc12
no

Another compound to check: CCCCOc1nc2ccccc2cc1C1CNC(=O)c2ccccc2N1 (stereo not given)
no

Another compound to check: C=C1C(=O)O[C@H]2[C@H]1CC/C(COC(=O)c1ccc(Br)cc1)=C\CC[C@@]1(C)O[C@@H]21
no

Another compound to check: CCN(CC)c1ccc(/C=C2/NC(=O)NC2=O)cc1
no

Another compound to check: CN(C)CC1CCCCCCCCCCC1=O (stereo not given)
no

Another compound to check: Cc1cccc(Cc2cnc(NC(=O)/C=C/c3ccco3)s2)c1
yes

Another compound to check: Cc1ccc(/C=C2\CN(C(=O)CCN3CCC(=NO)CC3)C/C(=C\c3ccc(C)cc3)C2=O)cc1
no

Another compound to check: COC(=O)[C@@H](C)C[C@H](Cc1ccccc1)NC(=O)c1csc([C@@H](C[C@H](C(C)C)N(C)C(=O)[C@@H](NC(=O)CN(C)C)C2CC2)OC(C)=O)n1
yes

Another compound to check: COc1ccc(C(=O)C(CN(C)C)c2ccccc2)cc1 (stereo not given)
no

Another compound to check: c1ccc(-c2nn(-c3ccccc3)[n+](-c3ccccc3-c3ccccc3)n2)cc1
no

Another compound to check: CCOC(=O)Nc1ccc2nc(Sc3ccc(Cl)cc3)sc2c1
no

Another compound to check: COc1ccc(CN[C@H]2CCc3cc(OC)c(OC)c(OC)c3-c3ccc(SC)c(=O)cc32)c(OC)c1OC
yes

Another compound to check: CCN1CCN(c2nc(NNC(=O)c3cccc(OC)c3)nc(N3CCN(C(c4ccccc4)c4ccccc4)CC3)n2)CC1
no
